system: Wnt signaling pathway (Top-Flash reporter gene); experiment: Top-Flash Wnt reporter gene assay in HEK293T cells with Wnt3a conditioned medium; assay type: cell-based; details: Homo sapiens, HEK-293T, 6 h, Table 9; HEK293T, Wnt3a conditioned medium, 6 h; read-out: IC50(μM), inhibitory activity on the Wnt signaling pathway
Property Label: IC50 (µM)

[P] C=C1C(=O)[C@]23CC[C@H]1CC2[C@@]12CCC[C@@](C)(COC1=O)C2[C@H](CN1CCOCC1)C3=O (stereo partly shown)
[Q] C=C1C(=O)[C@]23CC[C@H]1CC2[C@@]12CCC[C@@](C)(COC1=O)C2[C@H](Cl)C3=O (stereo partly shown)
[R] C=C1C(=O)C23CC[C@H]1CC2[C@]1(COC(C)=O)CCC[C@@](C)(COC(C)=O)C1[C@H](CO)C3=O (stereo partly shown)
Write the entries in order, lowest recorded IC50 first. # answer = labels listed in requested order
P, Q, R

###

test system: Wnt signaling pathway (Top-Flash reporter gene); experiment: Top-Flash Wnt reporter gene assay in HEK293T cells with Wnt3a conditioned medium; type: cell-based; conditions: Homo sapiens, HEK-293T, 6 h, Table 7 (second), derivatives modified on 7-hydroxyl of S-3; HEK293T, Wnt3a conditioned medium, 6 h; read-out: IC50 (μM), inhibitory activity on the Wnt signaling pathway
Property Label: IC50 (µM)

> print(dat)
                                   compound  property.label  unit.name  measured.value
1  C=C1C(=O)[C@]23CC[C@H]1CC2[C@@]12CCC[C@@](C)(COC1=O)C2C[C@H]3OC=O (some centres unmarked)            IC50         µM            18.3
2  C=C1C(=O)C23CC[C@H]1CC2[C@@]12CCC[C@@](C)(COC1=O)C2C[C@H]3OS(C)(=O)=O (some centres unmarked)            IC50         µM            15.1
3  C=C1C(=O)C23CC[C@H]1CC2[C@@]12CCC[C@@](C)(COC1=O)C2C[C@H]3OC(=O)c1ccccc1 (some centres unmarked)            IC50         µM            14.7
4  C=C1C(=O)C23CC[C@H]1CC2[C@@]12CCC[C@@](C)(COC1=O)C2C[C@H]3OC(=O)CN=[N+]=[N-] (some centres unmarked)            IC50         µM            22.1
5  C=C1C(=O)[C@]23CC[C@H]1CC2[C@@]12CCC[C@@](C)(COC1=O)C2C[C@H]3OS(=O)(=O)c1ccc(Cl)cc1 (some centres unmarked)            IC50         µM            14.4
6  C=C1C(=O)C23CC[C@H]1CC2[C@@]12CCC[C@@](C)(COC1=O)C2C[C@H]3OC(=O)C(F)(F)F (some centres unmarked)            IC50         µM            20.2

###

tested on: MCF-7 (human breast cancer cells); assay: MTT inhibition of tumor cell growth, MCF-7; assay type: cell-based; conditions: Homo sapiens, MCF7, 48 h, Table 1, 7-hydroxy derivatives of S-3
Property Label: IC50 (µM)

Worked examples, 5 compounds total:
Compound	IC50 [µM]
C=C1C(=O)[C@]23CC[C@H]1CC2[C@@]12CCC[C@@](C)(COC1=O)C2C[C@H]3OC(=O)CBr (stereo partly shown)	3.47
C=C1C(=O)[C@]23CC[C@H]1CC2[C@@]12CCC[C@@](C)(COC1=O)C2C[C@H]3O (stereo partly shown)	3.25
C=C1C(=O)C23CC[C@H]1CC2[C@@]12CCC[C@@](C)(COC1=O)C2C[C@H]3OS(=O)(=O)c1ccccc1 (stereo partly shown)	4.18
C=C1C(=O)C23CC[C@H]1CC2[C@@]12CCC[C@@](C)(COC1=O)C2C[C@H]3OC(=O)c1ccc(OC)cc1 (stereo partly shown)	3.07
C=C1C(=O)C23CC[C@H]1CC2[C@@]12CCC[C@@](C)(COC1=O)C2C[C@H]3OS(C)(=O)=O (stereo partly shown)	3.82

[1] C=C1C(=O)C23CC[C@H]1CC2[C@@]12CCC[C@@](C)(COC1=O)C2C[C@H]3OC(=O)c1ccccc1 (stereo partly shown)
[2] C=CC(=O)O[C@@H]1CC2[C@@]3(C)CCC[C@@]2(C(=O)OC3)C2C[C@@H]3CCC21C(=O)C3=C (stereo partly shown)
[3] C=C1C(=O)C23CC[C@H]1CC2[C@@]12CCC[C@@](C)(COC1=O)C2C[C@H]3OC(=O)c1ccc([N+](=O)[O-])cc1 (stereo partly shown)
Hi! Can you put these in order of IC50, lowest number first? I would appreciate it if you listed the labels in the requested order.
3, 1, 2
(3: 0.8 µM, 1: 3.71 µM, 2: 5.85 µM)

###

system: MCF-7 (human breast cancer cells); assay: MTT inhibition of tumor cell growth, MCF-7; assay type: cell-based; details: Homo sapiens, MCF7, 48 h, Table 1, 7-hydroxy derivatives of S-3
pIC50: −log10 of the molar value.
Property Label: pIC50

Compound	System Name	Property Label	Measured Value
C=C1C(=O)C23CC[C@H]1CC2[C@@]12CCC[C@@](C)(COC1=O)C2C[C@H]3OC(=O)C(F)(F)F (some centres unmarked) [Compound 1f]	MCF-7 (human breast cancer cells)	pIC50	5.56
C=C1C(=O)[C@]23CC[C@H]1CC2[C@@]12CCC[C@@](C)(COC1=O)C2C[C@H]3OC=O (some centres unmarked) [Compound 1a]	MCF-7 (human breast cancer cells)	pIC50	5.56
C=C1C(=O)C23CC[C@H]1CC2[C@@]12CCC[C@@](C)(COC1=O)C2C[C@H]3OC(=O)/C=C/c1ccccc1 (some centres unmarked) [Compound 1p]	MCF-7 (human breast cancer cells)	pIC50	5.47
C=C1C(=O)[C@]23CC[C@H]1CC2[C@@]12CCC[C@@](C)(COC1=O)C2C[C@H]3OC(C)=O (some centres unmarked) [Compound 1b]	MCF-7 (human breast cancer cells)	pIC50	5.46
C=C1C(=O)C23CC[C@H]1CC2[C@@]12CCC[C@@](C)(COC1=O)C2C[C@H]3OC(=O)c1ccco1 (some centres unmarked) [Compound 1n]	MCF-7 (human breast cancer cells)	pIC50	5.51
C=C1C(=O)C23CC[C@H]1CC2[C@@]12CCC[C@@](C)(COC1=O)C2C[C@H]3OC(=O)CN=[N+]=[N-] (some centres unmarked) [Compound 1e]	MCF-7 (human breast cancer cells)	pIC50	5.56
C=C1C(=O)[C@]23CC[C@H]1CC2[C@@]12CCC[C@@](C)(COC1=O)C2C[C@H]3OS(=O)(=O)c1ccc(Cl)cc1 (some centres unmarked) [Compound 1t]	MCF-7 (human breast cancer cells)	pIC50	5.50
